B1: PDS5B (parent)
chain: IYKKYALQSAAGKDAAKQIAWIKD

Variants of: B1
ASSAY_INFO: protein stability index of a GFP-peptide fusion (GPS, HEK-293T) (PSI 1-6); higher = more stable;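 note: lentivirally expressed fusions sorted by FACS into six bins by GFP to DsRed ratio, PSI derived from sequencing read proportions per bin multiplied by bin number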
EXPERIMENTAL_CONTEXT: c terminus: a fixed tail appended
MEASURED_ENDPOINT: protein stability index
Give bare numbers.

>  <MUTATIONS>
W21A

>  <protein stability index>
3.22

$$$$
>  <MUTATIONS>
D24Y

>  <protein stability index>
1.14

$$$$

Please give protein stability index for each item listed below.
1. S9W
2. K13M
3. S9R
4. D14R
5. K13F
6. A15C

**A:**
1: 1.99; 2: 2.17; 3: 2.29; 4: 2.72; 5: 1.93; 6: 1.89

Please give protein stability index for each item listed below.
1. D14F
2. L7E
3. A6G
4. Y2F
5. I1F

**A:**
1: 2.07; 2: 2.76; 3: 2.88; 4: 1.67; 5: 1.68

Please give protein stability index for each item listed below.
1. K13G
2. A15Q
3. Y2S
4. A20Q

**A:**
[2.22, 2.29, 2.84, 2.29]

Please give protein stability index for each item listed below.
1. A11S
2. Q18E
3. D24Q
4. W21H
5. A15L
6. L7H

**A:**
[2.3, 2.45, 1.7, 2.75, 2.64, 2.6]

Please give protein stability index for each item listed below.
1. Q18T
2. D14Q

**A:**
[1.6, 2.15]

Please give protein stability index for each item listed below.
1. A16G
2. A6H
3. Q8D
4. D24C

**A:**
1. 2.92
2. 1.97
3. 2.27
4. 2.08

Please give protein stability index for each item listed below.
1. Q8R
2. Y5D

**A:**
1: 2.21; 2: 3.79

Please give protein stability index for each item listed below.
1. D14E
2. Y2G
3. A10T
4. S9P
5. G12C
6. Y5E

**A:**
1: 2.1; 2: 3.38; 3: 2.42; 4: 2.17; 5: 1.6; 6: 3.09
